# target-or-test-system: recombinant human TFPI (tissue factor pathway inhibitor) (human, UniProt P10646 29-304)
# method-notes: cell-based or functional assay
Quick list: FXa assay % of FXa alone, 5 nM Ab, 10 nM TFPI per entry.
parameter: FXa assay % of FXa alone, 5 nM Ab, 10 nM TFPI (%)

[
  {
    "binder": "clone 3120 (antibody, V domains shown) VH: EVQLVESGGGLVKPGGSLRLSCAASGFTFSSYAMNWVRQAPGKGLEWVSTITTGGSYTYYADSVEGRFTISRDNAKNSLYLQMNSLRAEDTAVYYCARQDGYFLMDYWGQGTLVTVSS VL: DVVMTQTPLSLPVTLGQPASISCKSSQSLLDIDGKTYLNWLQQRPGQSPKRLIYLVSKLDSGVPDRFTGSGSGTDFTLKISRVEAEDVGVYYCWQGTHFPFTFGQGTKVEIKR",
    "obs-value": 9.1
  },
  {
    "binder": "clone 3131 (antibody, V domains shown) VH: EVQLVESGGGLVKPGGSLRLSCAASGFTFSSYAMSWVRQAPGKGLEWVSTITTGGSYTYYADSVQGRFTISRDNAKNSLYLQMNSLRAEDTAVYYCARQDGQFLMDYWGQGTLVTVSS VL: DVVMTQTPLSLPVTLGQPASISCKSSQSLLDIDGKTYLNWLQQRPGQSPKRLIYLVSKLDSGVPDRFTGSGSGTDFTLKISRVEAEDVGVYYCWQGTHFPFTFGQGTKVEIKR",
    "obs-value": 7.7
  },
  {
    "binder": "clone 3115 (antibody, V domains shown) VH: EVQLVESGGGLVKPGGSLRLSCAASGFTFSSYAMNWVRQAPGKGLEWVGTITTGGSHTYYADSVDGRFTISRDNAKNSLYLQMNSLRAEDTAVYYCARQDGNFLMDYWGQGTLVTVSS VL: DVVMTQTPLSLPVTLGQPASISCKSSQSLLDVDGKTYLNWLQQRPGQSPKRLIYLVSKLDSGVPDRFTGSGSGTDFTLKISRVEAEDVGVYYCWQGTHFPFTFGQGTKVEIKR",
    "obs-value": 8.1
  },
  {
    "binder": "clone 4141 (antibody, V domains shown) VH: EVQLVESGGGLVKPGGSLRLSCAASGFTFSSYAMNWVRQAPGKGLEWVGTITTGGSHTYYADSVEGRFTISRDNAKNSLYLQMNSLRAEDTAVYYCARQDGYFLMDYWGQGTLVTVSS VL: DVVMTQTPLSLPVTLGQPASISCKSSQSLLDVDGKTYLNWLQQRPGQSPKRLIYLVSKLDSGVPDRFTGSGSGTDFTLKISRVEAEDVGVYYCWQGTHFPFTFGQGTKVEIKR",
    "obs-value": 8.4
  },
  {
    "binder": "clone 4017 (antibody, V domains shown) VH: EVQLVESGGGLVKPGGSLRLSCAASGFTFSSYAMNWVRQAPGKGLEWVGTITTGGSYTYYADSVQGRFTISRDNAKNSLYLQMNSLRAEDTAVYYCARQDGYFLMDYWGQGTLVTVSS VL: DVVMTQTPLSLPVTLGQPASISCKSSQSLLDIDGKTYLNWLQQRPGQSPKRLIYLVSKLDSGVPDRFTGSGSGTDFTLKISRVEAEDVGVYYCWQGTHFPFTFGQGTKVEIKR",
    "obs-value": 10.6
  }
]
